molecular target: SARS-CoV-2 spike RBD (Wuhan-Hu-1) (Severe acute respiratory syndrome …, UniProt P0DTC2); assay: SPR
Measurement Label: pKd
Remember, pKd is on a log scale: it is -log10 of the molar concentration.

GET /values?readout=pKd&item= COVIC-300 (antibody, V domains shown) VH: EVQLVESGGGLIQPGGSLRLSCAASGFIVSSNYMSWVRQAPGKGLEWVSVIYSGGITYFADSVKGRFTISRDISKNTLYLQMNSLRAEDTAVYYCARDRRLPHYYYGLDVWGQGTTVTVSS VL: QSVLTQPASVSGSPGQSITISCTGTSSDVGGYNYVSWYQQHPGKAPTLIIYEVTSRPSGVSNRFSGSKSGNTASLTISGLQAEDEADYYCSSYTTSNTLGGVFGTGTKVTVL
8.95

Name the recorded pKd for COVIC-151 (antibody, V domains shown) VH: QVQLQESGPGLVKPSQTLSLTCTVSGGSISSYGYYWNWIRQHPGKGLEWIGYIYYSGSTYYNPSLKSRVTISVDTSKNQLSLRLNSVSAADTAVYYCARDFGGNSNYFDYWGQGTLVTVSS VL: AIQLTQSPSSLSASVGDRVTITCRTSQGISSALAWYQQKPGKAPKLLIYDASSLESGVPSRFSGSGSGTDFTLTISSLQPEDFATYYCQQFNSYPLTFGGGTKVEIKR .
8.20

GET /values?readout=pKd&item= COVIC-168 (antibody, V domains shown) VH: EVQLVESGGGLIQPGGSLRLSCAASGVTVSSNYMNWVRQAPGKGLEGVSVIYSGGTTYYADSVKGRFTISRDNSKNTLYLQMNSLRAEDTAVYYCARDTVVYGMDVWGQGTTVTVSS VL: DIQLTQSPSFLSASVGDRVTITCWASQGISSYLAWYQQKPGKAPKLLIYTASTLQSGVPSRFSGSGSGTEFTLTISSLQPEDFATYYCQQLNSYPLTFGGGTKVEIKR
7.62
